# Test system: CLK2;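 note: KINOMEscan kinase panel screen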
# EXPERIMENTAL_SETUP: concentration: 1 μM, replicates: in singlicate; n = 1
ATTRIBUTE_MEASURED: %Inh

Examples from the recorded data:
CCC(=O)c1c(-c2ccccc2)c2cc(Cl)ccc2c(=O)n1Cc1cc(S(C)(=O)=O)n(CCC(C)(C)O)n1; 1%
O=C(NCc1cccs1)c1cc(C(=O)c2c(Cl)cccc2Cl)c[nH]1; 22%
COC(=O)c1c(-c2ccccc2)c2cc(Br)ccc2c(=O)n1Cc1ccc(S(C)(=O)=O)cc1; 14%
CCc1ccc(-c2ccc3c(c2)-c2nn(C)cc2S(=O)(=O)N3C)cc1; 13%
O=C(NCCNc1ccnc(Nc2ccc(F)cc2)n1)Nc1ccc2c(c1)OCO2; 13%

Kindly note the recorded %Inh for Cl.NS(=O)(=O)c1cccc(Nc2cc(-c3ccc(F)cc3)n[nH]2)c1 , which is 0%
